- procedure_details: self-splicing fitness, log relative to wild type (ln ratio); higher = more splicing; Tetrahymena group I intron in knt gene, E. coli kanamycin selection, DiMSum; sequences stand for … in CUCUCU…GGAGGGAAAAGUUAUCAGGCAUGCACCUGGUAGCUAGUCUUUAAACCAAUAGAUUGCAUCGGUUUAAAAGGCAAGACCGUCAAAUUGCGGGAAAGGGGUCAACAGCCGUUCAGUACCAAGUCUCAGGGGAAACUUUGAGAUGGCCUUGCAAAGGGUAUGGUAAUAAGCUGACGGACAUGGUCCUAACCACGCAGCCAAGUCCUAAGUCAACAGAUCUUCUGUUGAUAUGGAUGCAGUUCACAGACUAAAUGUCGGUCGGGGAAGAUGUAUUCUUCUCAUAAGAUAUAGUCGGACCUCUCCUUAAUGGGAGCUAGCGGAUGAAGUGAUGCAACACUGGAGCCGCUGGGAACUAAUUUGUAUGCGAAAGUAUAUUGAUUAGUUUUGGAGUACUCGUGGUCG;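 note: selection with 25 µg/mL kanamycin versus none on LB agar overnight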
- conditions: 37 °C
Categorized via self-splicing fitness (ln): band A = under -2, band B = from -2 up to -0.8, band C = -0.8 and over

residue_codes=AUGAAGCAAUAUUACGGGUU cat="band B"

# bin lookup: classify AUCGAGCAAUAUUACGCGUC by its self-splicing fitness (ln)
band A

# bin lookup: classify UCUAAGCAAUAUUACGGGUG by its self-splicing fitness (ln)
band B

# bin lookup: classify CAAGAGCAAUAUUACGGUAA by its self-splicing fitness (ln)
band A

# bin lookup: classify UAUCAGCAAUAUUACGACGC by its self-splicing fitness (ln)
band C

# bin lookup: classify CUAUAGCAAUAUUACGGAGG by its self-splicing fitness (ln)
band C

# bin lookup: classify GGCUAGCAAUAUUACGGAAA by its self-splicing fitness (ln)
band B

# bin lookup: classify UGACAGCAAUAUUACGGUUG by its self-splicing fitness (ln)
band B

# bin lookup: classify UUAGAGCAAUAUUACGAUAG by its self-splicing fitness (ln)
band C

# bin lookup: classify GCCUAGCAAUAUUACGCAAU by its self-splicing fitness (ln)
band C

# bin lookup: classify CUCAAGCAAUAUUACGCAGG by its self-splicing fitness (ln)
band A

# bin lookup: classify CGUCAGCAAUAUUACGUCCA by its self-splicing fitness (ln)
band B

# bin lookup: classify AGGCAGCAAUAUUACGGGUG by its self-splicing fitness (ln)
band A

# bin lookup: classify AUGAAGCAAUAUUACGUUCU by its self-splicing fitness (ln)
band C
